Data provenance is ChEMBL document CHEMBL1961873.

assay_target: Receptor tyrosine-protein kinase erbB-4 (Homo sapiens) (UniProt Q15303);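 further: each value is a mean percent inhibition of ERBB4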
Sequence (Q15303 whole entry): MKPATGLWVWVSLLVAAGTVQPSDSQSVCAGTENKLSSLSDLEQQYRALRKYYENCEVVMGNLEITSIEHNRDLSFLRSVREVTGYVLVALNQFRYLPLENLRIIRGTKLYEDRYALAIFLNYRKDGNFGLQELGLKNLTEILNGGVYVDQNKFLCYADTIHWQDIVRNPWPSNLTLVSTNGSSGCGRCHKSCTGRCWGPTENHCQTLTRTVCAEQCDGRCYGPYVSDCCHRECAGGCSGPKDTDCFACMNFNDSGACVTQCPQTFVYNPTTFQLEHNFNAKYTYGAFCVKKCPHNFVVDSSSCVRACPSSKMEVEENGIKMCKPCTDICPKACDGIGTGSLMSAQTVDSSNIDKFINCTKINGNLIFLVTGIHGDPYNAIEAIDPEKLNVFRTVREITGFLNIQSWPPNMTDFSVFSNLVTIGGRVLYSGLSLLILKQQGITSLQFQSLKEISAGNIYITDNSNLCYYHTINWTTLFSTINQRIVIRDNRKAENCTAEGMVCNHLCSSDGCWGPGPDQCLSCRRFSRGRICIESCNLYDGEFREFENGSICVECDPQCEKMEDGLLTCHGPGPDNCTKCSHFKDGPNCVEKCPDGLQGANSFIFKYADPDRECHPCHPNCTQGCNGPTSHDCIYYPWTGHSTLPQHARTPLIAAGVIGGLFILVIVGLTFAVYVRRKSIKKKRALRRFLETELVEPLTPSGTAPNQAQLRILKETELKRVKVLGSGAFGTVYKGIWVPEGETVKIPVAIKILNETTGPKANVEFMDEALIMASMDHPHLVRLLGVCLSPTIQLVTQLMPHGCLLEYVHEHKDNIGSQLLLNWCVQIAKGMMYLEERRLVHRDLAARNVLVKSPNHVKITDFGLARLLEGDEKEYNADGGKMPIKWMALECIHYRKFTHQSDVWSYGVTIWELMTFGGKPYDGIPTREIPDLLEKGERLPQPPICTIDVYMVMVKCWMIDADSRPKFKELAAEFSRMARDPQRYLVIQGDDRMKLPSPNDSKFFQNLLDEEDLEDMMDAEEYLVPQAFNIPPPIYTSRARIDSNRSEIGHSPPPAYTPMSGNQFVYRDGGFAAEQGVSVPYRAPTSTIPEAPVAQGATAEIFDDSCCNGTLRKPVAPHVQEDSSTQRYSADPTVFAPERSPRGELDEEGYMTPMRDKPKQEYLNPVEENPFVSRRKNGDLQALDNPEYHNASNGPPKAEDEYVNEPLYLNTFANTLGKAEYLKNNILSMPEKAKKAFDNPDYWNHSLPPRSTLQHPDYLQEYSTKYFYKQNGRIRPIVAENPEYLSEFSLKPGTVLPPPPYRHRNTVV
condition_summary: at 1 µM
inhibition of 20% or higher: Condition met. Under 20%: Condition not met.

These solved cases illustrate the format of a correct answer.
# input Textbook exercise: given the entry "Nc1nccc(-c2c(-c3ccc(F)cc3)ncn2CCCN2CCOCC2)n1" , state whether its inhibition is greater than or equal to 20%.
# output Condition met

# input Is the recorded value of inhibition equal to or greater than 20% for this compound? "[O-][S+]1CCN(Cc2ccc(-c3ccc4ncnc(Nc5ccc(OCc6ccccc6)c(Cl)c5)c4c3)o2)CC1"
# output Condition met

# input Textbook exercise: given the entry "O=C1Nc2ccc(-c3cccnc3)cc2C1=Cc1cc(Br)c(O)c(Br)c1" , state whether its inhibition is greater than or equal to 20%.
# output Condition not met

# input Check this compound for inhibition at or above 20%: "CCS(=O)(=O)c1ccc(OC)c(Nc2nccc(N(C)c3ccc4c(C)n[nH]c4c3)n2)c1"
# output Condition met

# input Please tell me: is the compound "NS(=O)(=O)c1cccc(Nc2cc(-c3ccc(F)cc3)n[nH]2)c1" at or over 20% in terms of inhibition?
# output Condition not met

# input Determine whether this compound has inhibition no lower than 20%: "COc1cc2ncnc(Nc3ccc4c(cnn4Cc4ccccc4)c3)c2cc1OC"
# output Condition met

New cases:
# input Confirm if inhibition reported for the compound "Cc1ccc(NC(=O)CC2CC2)cc1-c1ccc(C(=O)NCC2CC2)cc1" is 20% or above.
# output Condition not met

# input inhibition >= 20% for "Cc1cc(O)cc(C)c1/C=C/c1cncc(C(=O)N(C)C)c1" ?
# output Condition not met

# input Could you verify whether the entry "NS(=O)(=O)c1ccc(NC=C2C(=O)Nc3ccc4ncsc4c32)cc1" shows inhibition of no less than 20%?
# output Condition not met

----------
inhibition overview
assay_target: Phosphatidylinositol 4,5-bisphosphate 3-kinase catalytic subunit alpha isoform (Homo sapiens) (UniProt P42336);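 further: values are mean percent inhibition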
Sequence (P42336 whole entry, canonical isoform): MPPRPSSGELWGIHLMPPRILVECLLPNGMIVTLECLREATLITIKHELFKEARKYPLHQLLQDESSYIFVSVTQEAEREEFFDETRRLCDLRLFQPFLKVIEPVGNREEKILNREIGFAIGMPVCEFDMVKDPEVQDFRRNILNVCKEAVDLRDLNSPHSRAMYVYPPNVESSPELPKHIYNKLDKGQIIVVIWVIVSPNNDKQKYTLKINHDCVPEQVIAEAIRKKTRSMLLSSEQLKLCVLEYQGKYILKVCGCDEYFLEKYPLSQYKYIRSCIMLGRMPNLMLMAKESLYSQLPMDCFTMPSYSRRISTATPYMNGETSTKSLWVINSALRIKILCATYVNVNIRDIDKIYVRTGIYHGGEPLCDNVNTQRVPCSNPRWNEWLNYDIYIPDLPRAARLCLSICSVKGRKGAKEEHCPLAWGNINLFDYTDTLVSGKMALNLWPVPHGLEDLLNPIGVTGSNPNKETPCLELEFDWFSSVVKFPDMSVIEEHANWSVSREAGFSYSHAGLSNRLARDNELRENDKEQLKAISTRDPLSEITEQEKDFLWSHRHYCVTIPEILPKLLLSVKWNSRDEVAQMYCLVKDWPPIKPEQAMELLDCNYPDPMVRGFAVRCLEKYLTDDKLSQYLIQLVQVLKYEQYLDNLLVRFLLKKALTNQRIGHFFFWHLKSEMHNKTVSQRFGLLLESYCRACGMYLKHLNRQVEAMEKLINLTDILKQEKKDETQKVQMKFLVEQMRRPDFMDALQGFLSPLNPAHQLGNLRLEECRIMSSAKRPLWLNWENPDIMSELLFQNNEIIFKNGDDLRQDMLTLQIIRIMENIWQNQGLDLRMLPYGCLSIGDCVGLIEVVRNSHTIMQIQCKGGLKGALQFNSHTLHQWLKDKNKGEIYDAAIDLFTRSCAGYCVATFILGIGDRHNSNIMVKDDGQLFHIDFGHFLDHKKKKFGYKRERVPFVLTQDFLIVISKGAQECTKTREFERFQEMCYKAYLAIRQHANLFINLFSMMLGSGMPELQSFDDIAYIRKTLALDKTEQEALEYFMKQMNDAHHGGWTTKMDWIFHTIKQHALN
condition_summary: at 1 µM

Recorded results for 6 molecules are shown here.
# input Retrieve inhibition measured for "NS(=O)(=O)c1ccc(NC=C2C(=O)Nc3ccc4ncsc4c32)cc1" and print it.
# output 13.1%

# input Give reported inhibition value for "COc1ccc2ncnc(Nc3ccc(OCc4ccccc4)cc3)c2c1"
# output 1.05%

# input // Input: "CN(C)CCCn1c(-c2nonc2N)nc2cnccc21" . Output its inhibition only.
# output 5.05%

# input Could you please provide reported inhibition for "CCS(=O)(=O)c1ccc(OC)c(Nc2ncc(-c3cccc(OC)c3)o2)c1" ? Thanks!
# output 2%

# input Identify measured inhibition associated with "NS(=O)(=O)c1ccc(N/N=C2\C(=O)Nc3ccc(Cl)cc32)cc1"
# output 2.12%

# input Provide one value: measured inhibition of "NC(=O)c1sc(-n2cnc3ccccc32)cc1OCc1ccccc1Br"
# output 4.31%

Continuing:
# input Using known records, supply inhibition for "CS(=O)(=O)CCNCc1nc(-c2ccc3ncnc(Nc4ccc(OCc5cccc(C(F)(F)F)c5)cc4)c3c2)cs1"
# output -0.47%

# input Give inhibition for the following molecule: "NS(=O)(=O)c1ccc(-c2cc3ccncc3cc2OCc2ccccc2)cc1"
# output 4.7%

# input Return inhibition (reported value) for this molecule: "CN(C)C(=O)O[C@H]1CN[C@H](C#Cc2cc3ncnc(Nc4ccc(OCc5cccc(F)c5)c(Cl)c4)c3s2)C1"
# output 31.7%

# input Tell me its inhibition given "NC(=O)c1cccc(Nc2nccc(Nc3cccc(F)c3)n2)c1" as the entry.
# output 1.22%

# input Indicate the recorded inhibition value for this molecule: "OCc1ccc(-c2nc(-c3ccccn3)c(-c3ccc4c(c3)OCO4)[nH]2)cc1"
# output 2.23%

# input State its inhibition for this molecule: "CCn1c(-c2nonc2N)nc2c(C#CC(C)(C)O)nc(OCCNC)cc21"
# output 4.34%

# input // fetch inhibition given entry "[O-][S+]1CCN(Cc2ccc(-c3ccc4ncnc(Nc5ccc(OCc6ccccc6)c(Cl)c5)c4c3)o2)CC1"
# output 0.92%

# input Quick one: give measured inhibition for "CN(c1ccc(NC(=O)Nc2ccc(OC(F)(F)F)cc2)cc1)c1ccnc(Nc2cccc(S(N)(=O)=O)c2)n1"
# output 5.04%

# input State, in one line, measured inhibition of "FC(F)(F)c1ccc(-c2nn3ncccc3c2-c2ccnc(Nc3ccc4c(c3)OCCO4)n2)cc1"
# output -2.14%

----------
Each entry below lists one item and its recorded inhibition value.
assay_target: Ephrin type-B receptor 3 (Homo sapiens) (UniProt P54753);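 further: reported value is the mean percent inhibition of EPHB3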
Sequence (P54753 whole entry): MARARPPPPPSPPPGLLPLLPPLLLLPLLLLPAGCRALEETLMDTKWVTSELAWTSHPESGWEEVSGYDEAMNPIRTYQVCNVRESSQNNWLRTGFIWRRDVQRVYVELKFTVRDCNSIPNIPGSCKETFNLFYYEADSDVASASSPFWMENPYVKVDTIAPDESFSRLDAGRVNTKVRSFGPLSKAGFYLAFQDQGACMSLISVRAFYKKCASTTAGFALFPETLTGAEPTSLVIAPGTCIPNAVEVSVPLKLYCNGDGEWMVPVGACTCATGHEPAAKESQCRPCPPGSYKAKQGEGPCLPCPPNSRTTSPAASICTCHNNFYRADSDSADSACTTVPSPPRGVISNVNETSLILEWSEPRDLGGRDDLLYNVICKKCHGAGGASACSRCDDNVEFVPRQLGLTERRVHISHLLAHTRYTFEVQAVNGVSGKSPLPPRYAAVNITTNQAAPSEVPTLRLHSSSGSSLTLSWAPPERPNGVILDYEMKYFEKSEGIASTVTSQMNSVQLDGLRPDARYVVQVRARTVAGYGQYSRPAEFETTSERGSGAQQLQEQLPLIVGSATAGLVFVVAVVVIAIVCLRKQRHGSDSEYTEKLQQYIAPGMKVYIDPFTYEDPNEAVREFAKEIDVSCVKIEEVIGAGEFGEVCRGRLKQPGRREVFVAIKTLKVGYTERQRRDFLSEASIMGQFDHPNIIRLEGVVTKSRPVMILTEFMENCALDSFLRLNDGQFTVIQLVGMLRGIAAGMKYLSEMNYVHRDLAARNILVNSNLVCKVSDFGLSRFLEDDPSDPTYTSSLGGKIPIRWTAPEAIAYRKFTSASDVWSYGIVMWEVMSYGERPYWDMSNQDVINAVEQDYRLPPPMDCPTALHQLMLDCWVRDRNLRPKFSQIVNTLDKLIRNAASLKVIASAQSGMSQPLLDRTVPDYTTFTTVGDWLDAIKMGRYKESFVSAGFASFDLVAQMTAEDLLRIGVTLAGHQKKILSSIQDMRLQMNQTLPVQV
condition_summary: at 0.1 µM
Form entry: enter the amount, then its unit.

Reference set, count: 5
# input Under Ephrin type-B receptor 3 (Homo sapiens) (UniProt P54753), report inhibition for "CCn1c(-c2nonc2N)nc2ccc(F)cc21"
# output 6.48%

# input Under Ephrin type-B receptor 3 (Homo sapiens) (UniProt P54753): report inhibition of "CS(=O)(=O)CCNCc1nc(-c2ccc3ncnc(Nc4ccc(OCc5cccc(C(F)(F)F)c5)cc4)c3c2)cs1" .
# output 2.8%

# input Under Ephrin type-B receptor 3 (Homo sapiens) (UniProt P54753), report inhibition for "COC(=O)c1ccc2c(c1)C(=Cc1cc(Br)c(O)c(Br)c1)C(=O)N2"
# output 2.1%

# input Retrieve inhibition on Ephrin type-B receptor 3 (Homo sapiens) (UniProt P54753); query "Cc1ccc(Nc2ccnc(Nc3cccc(C(N)=O)c3)n2)cc1O"
# output 0.29%

# input Supply inhibition measured with Ephrin type-B receptor 3 (Homo sapiens) (UniProt P54753) for "COc1cc(/C=N/Nc2ncnc3c2cnn3C(C)C)ccc1O" .
# output 2.7%

Next:
# input Give reported inhibition for "COc1cc2ncnc(Nc3ccc4c(cnn4Cc4ccccc4)c3)c2cc1OC" (Ephrin type-B receptor 3 (Homo sapiens) (UniProt P54753))
# output 2.93%

----------
assay_target: Tyrosine-protein kinase Mer (Homo sapiens) (UniProt Q12866);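 further: reported value is a mean inhibition of MER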
Sequence (Q12866 whole entry): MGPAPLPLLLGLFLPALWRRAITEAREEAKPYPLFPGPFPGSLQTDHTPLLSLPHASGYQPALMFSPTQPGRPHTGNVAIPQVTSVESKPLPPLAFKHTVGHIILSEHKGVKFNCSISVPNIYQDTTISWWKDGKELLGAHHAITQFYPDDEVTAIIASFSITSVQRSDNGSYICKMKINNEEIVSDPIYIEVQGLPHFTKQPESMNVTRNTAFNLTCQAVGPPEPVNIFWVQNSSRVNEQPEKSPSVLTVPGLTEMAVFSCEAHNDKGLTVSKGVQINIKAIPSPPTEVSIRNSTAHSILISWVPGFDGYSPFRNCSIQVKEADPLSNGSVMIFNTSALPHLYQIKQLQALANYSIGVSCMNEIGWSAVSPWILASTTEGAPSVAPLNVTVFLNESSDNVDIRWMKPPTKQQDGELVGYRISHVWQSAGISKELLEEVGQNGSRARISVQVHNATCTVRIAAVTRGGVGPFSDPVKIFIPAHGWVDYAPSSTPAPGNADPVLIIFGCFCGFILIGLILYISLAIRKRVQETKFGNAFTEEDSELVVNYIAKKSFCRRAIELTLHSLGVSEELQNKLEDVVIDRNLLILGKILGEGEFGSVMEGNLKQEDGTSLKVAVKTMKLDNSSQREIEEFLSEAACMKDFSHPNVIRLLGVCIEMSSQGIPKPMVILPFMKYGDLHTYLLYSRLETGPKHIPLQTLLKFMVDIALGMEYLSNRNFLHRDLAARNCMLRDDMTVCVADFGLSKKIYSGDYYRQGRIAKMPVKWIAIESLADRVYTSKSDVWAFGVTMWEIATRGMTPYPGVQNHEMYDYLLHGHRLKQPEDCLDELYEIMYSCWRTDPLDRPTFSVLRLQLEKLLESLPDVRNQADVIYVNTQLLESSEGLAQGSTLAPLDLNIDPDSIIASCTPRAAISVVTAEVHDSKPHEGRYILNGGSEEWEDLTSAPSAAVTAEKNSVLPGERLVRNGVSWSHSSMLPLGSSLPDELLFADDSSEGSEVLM
condition_summary: at 0.1 µM
readout_type: inhibition (%)
Just the number please, in %, no unit attached.

Here is how some compounds turned out for inhibition.
# input Give the reported value of inhibition for this record: "Cc1cc(-c2ccccn2)cc(C)c1/C=C/c1cncc(-c2nn[nH]n2)c1"
# output -0.39

# input Return value of inhibition for input "NS(=O)(=O)c1cccc(-c2cc3ccncc3cc2OCc2ccccc2)c1" , no commentary.
# output 4.79

# input Tell us which inhibition value is on record for "CN(C)C(=O)O[C@H]1CN[C@H](C#Cc2cc3ncnc(Nc4ccc(OCc5cccc(F)c5)c(Cl)c4)c3s2)C1"
# output 0.43

# input Complete the entry with inhibition for "CC(C)c1ccc(Nc2nccc(-c3cnn4ncccc34)n2)cc1"
# output 1.42

Further cases:
# input Tell me its inhibition given "O=C1Nc2ccccc2/C1=C/Nc1ccc2[nH]c(=O)[nH]c2c1" as the entry.
# output 1.74

# input Please report inhibition for the following compound: "Cc1ccc(Nc2ccnc(Nc3cccc(C(N)=O)c3)n2)cc1O"
# output 1.3

# input Quickly give me recorded inhibition for "CC(C)c1ccc2c(c1)NC(=O)/C2=N/Nc1ccc(S(N)(=O)=O)cc1"
# output 0.63

----------
assay_target: cAMP-dependent protein kinase catalytic subunit alpha (Homo sapiens);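 further: reported value is the mean percent inhibition of PKA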
condition_summary: at 0.1 µM
inhibition for assorted molecules
# value in %; strip the unit string

Recorded inhibition, per entry:
# input Tell me its inhibition given "CN(C)C(=O)O[C@H]1CN[C@H](C#Cc2cc3ncnc(Nc4ccc(OCc5cccc(F)c5)c(Cl)c4)c3s2)C1" as the entry.
# output 2.32

# input Return value of inhibition for input "O=C(Nc1ccc(Oc2ccc3[nH]c(NC(=O)c4ccco4)nc3c2)cc1)Nc1cc(C(F)(F)F)ccc1F" , no commentary.
# output -0.33

# input Item "CS(=O)(=O)CCNCc1nc(-c2ccc3ncnc(Nc4ccc(OCc5cccc(C(F)(F)F)c5)cc4)c3c2)cs1" : provide inhibition
# output 1.46

# input for lookup
# input Identify inhibition associated with the molecule "COc1ccc2ncnc(Nc3ccc(OCc4ccccc4)cc3)c2c1"
# output 2.11

----------
assay_target: Serine/threonine-protein kinase SIK2 (Homo sapiens) (UniProt Q9H0K1)
condition_summary: at 0.1 µM
Description: GSK_PKIS: SNF1LK2 (QIK) mean inhibition at 0.1 uM [Nanosyn]
Each item that follows carries a reported inhibition.
Note: a bare number is incomplete; add the unit.

# input For the compound "Oc1cccc(-c2nc(-c3ccccc3)[nH]c2-c2ccncc2)c1" , give its measured inhibition value.
# output 4.34%

# input Provide measured inhibition value, entry: "COc1cc2ncn(-c3cc(OCc4ccccc4S(C)(=O)=O)c(C#N)s3)c2cc1OC"
# output 21.9%

Now for another entry.
# input Output measured inhibition for this item: "N#Cc1cccc(Nc2nccc(-c3cnn4ncccc34)n2)c1"
# output 4.44%

----------
assay_target: Tyrosine-protein kinase ZAP-70 (Homo sapiens)
Sequence (whole entry): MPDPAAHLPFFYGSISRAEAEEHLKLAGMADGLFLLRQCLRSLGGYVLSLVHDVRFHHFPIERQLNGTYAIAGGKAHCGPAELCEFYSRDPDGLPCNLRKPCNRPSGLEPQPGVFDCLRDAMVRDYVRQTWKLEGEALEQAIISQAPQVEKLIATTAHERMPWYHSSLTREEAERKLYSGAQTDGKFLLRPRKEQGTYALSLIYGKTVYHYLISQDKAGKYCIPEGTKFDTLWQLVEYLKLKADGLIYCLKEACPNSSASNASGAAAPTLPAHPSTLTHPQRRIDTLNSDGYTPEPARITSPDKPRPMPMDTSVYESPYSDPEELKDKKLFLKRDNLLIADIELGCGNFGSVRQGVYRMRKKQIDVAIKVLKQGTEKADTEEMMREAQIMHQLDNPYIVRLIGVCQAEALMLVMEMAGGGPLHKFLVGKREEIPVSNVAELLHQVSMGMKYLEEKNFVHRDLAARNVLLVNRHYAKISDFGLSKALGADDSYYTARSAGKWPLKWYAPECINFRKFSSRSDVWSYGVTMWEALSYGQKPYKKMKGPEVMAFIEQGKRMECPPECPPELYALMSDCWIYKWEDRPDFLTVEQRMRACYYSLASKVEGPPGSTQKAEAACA
condition_summary: at 1 µM
Description: GSK_PKIS: ZAP70 mean inhibition at 1 uM [Nanosyn]
readout_type: inhibition (%)
Give the number; % is assumed, so skip it.

# input # assay system Tyrosine-protein kinase ZAP-70 (Homo sapiens): give inhibition of "CCS(=O)(=O)c1ccc(OC)c(Nc2ncc(-c3cccc(OC)c3)o2)c1"
# output -2.95

# input Specify the recorded inhibition for "ON=C1CCc2cc(-c3nc(C4CCNCC4)[nH]c3-c3ccncc3)ccc21" , system: Tyrosine-protein kinase ZAP-70 (Homo sapiens).
# output 1.96

# input Find inhibition for "NS(=O)(=O)c1cccc(-c2cc3ccncc3cc2OCc2ccccc2)c1" on Tyrosine-protein kinase ZAP-70 (Homo sapiens) and write it down.
# output 4.15

# input Would you please give the reported inhibition of "Cc1ccc2c(-c3ccnc(Nc4ccc5c(c4)OCCO5)n3)c(-c3ccc(C(F)(F)F)cc3)nn2n1" with Tyrosine-protein kinase ZAP-70 (Homo sapiens)?
# output 1.38

# input Identify measured inhibition obtained with Tyrosine-protein kinase ZAP-70 (Homo sapiens) for "N#Cc1cccc(Nc2nccc(-c3cnn4ncccc34)n2)c1" .
# output 13.3

---
# input Lab note: record inhibition of "c1ccc(Cc2nc3ccc(Nc4ncnc5ccccc45)cc3[nH]2)cc1" tested on Tyrosine-protein kinase ZAP-70 (Homo sapiens).
# output -1.31

# input Provide the reported inhibition (system: Tyrosine-protein kinase ZAP-70 (Homo sapiens)) for "NS(=O)(=O)c1cccc(Nc2cc(-c3ccc(F)cc3)n[nH]2)c1"
# output 2.54

# input Print Tyrosine-protein kinase ZAP-70 (Homo sapiens) inhibition for "C[C@@H](Oc1cc(-n2cnc3ccc(OC[C@@H](O)CO)cc32)sc1C(N)=O)c1ccccc1Cl" .
# output -0.42

# input Report inhibition on Tyrosine-protein kinase ZAP-70 (Homo sapiens) for this entry: "[O-][S+]1CCN(Cc2ccc(-c3ccc4ncnc(Nc5ccc(OCc6ccccc6)c(Cl)c5)c4c3)o2)CC1"
# output 1.8

# input Fill in: inhibition on Tyrosine-protein kinase ZAP-70 (Homo sapiens), entry "CS(=O)(=O)Nc1cccc(-c2ccc3c(NC(=O)C4CC4)n[nH]c3c2)c1"
# output 1.3

# input Name the recorded inhibition of "C[C@@H](Oc1cc(-n2cnc3ccc(OCC4CCN(C)CC4)cc32)sc1C(N)=O)c1ccccc1C(F)(F)F" , assay system Tyrosine-protein kinase ZAP-70 (Homo sapiens).
# output -1.19

# input Look up Tyrosine-protein kinase ZAP-70 (Homo sapiens) data: inhibition of "COc1cccc(-n2ncc3c(N/N=C/c4ccc(S(C)(=O)=O)cc4)ncnc32)c1" , then report it.
# output 1.31

# input Give reported inhibition for "Cc1ccc(Nc2ccnc(Nc3cccc(C(N)=O)c3)n2)cc1O" (Tyrosine-protein kinase ZAP-70 (Homo sapiens))
# output 6.83
